Provide the reported log p [b] of each item.
assay: logP by HPLC on reversed-phase columns (EEC Directive 79/831 Annex V.A8); type: physicochemical; details: pH 2.7
Please state the value as a number alone, without comment.

log p [b] recorded for this compound, CCCOCC1COC(c2cccc(Nc3ncc(Cl)c(NC4CC4)n3)c2)O1 (centres unmarked) , is 2.51

log p [b] recorded for this compound, "Clc1cnc(Nc2cccc(C3OCC4(CC4)CO3)c2)nc1NC1CC1" , is 2.09

log p [b] recorded for this compound, CC1COC(c2cccc(Nc3ncc(Br)c(NC4CCC4)n3)c2)O1 (centres unmarked) , is 2.39

log p [b] recorded for this compound, Clc1cnc(Nc2cccc(C3OCC(Cl)CO3)c2)nc1NC1CC1 (centres unmarked) , is 2.15

###

Provide the reported log p [c] of each item.
test: logP by HPLC on reversed-phase columns (EEC Directive 79/831 Annex V.A8); format: physicochemical; details: pH 7.8
Please state the value as a number alone, without comment.

log p [c] recorded for this molecule, "CC1(c2cccc(Nc3ncc(C(F)(F)F)c(NC4CCC4)n3)c2)OCCCO1" , is 4.24

log p [c] recorded for this molecule, "FC(F)(F)c1cnc(Nc2ccc(C3OCCCO3)cc2)nc1NC1CC1" , is 3.21

log p [c] recorded for this molecule, "CC1(c2cccc(Nc3ncc(C(F)(F)F)c(NC4CC4)n3)c2)OCCO1" , is 3.46

log p [c] recorded for this molecule, Clc1cnc(Nc2cccc(C3OC4COCC4O3)c2)nc1NC1CCC1 (centres unmarked) , is 3.04

log p [c] recorded for this molecule, Brc1cnc(Nc2cccc(C3OC4COCC4O3)c2)nc1NC1CCC1 (centres unmarked) , is 3.23

log p [c] recorded for this molecule, CC(C)(C)C1CCOC(c2cccc(Nc3ncc(Br)c(NC4CC4)n3)c2)O1 (centres unmarked) , is 4.7

log p [c] recorded for this molecule, COc1ccc(OCC2COC(c3cccc(Nc4ncc(Cl)c(NC5CC5)n4)c3)O2)cc1 (centres unmarked) , is 3.78

log p [c] recorded for this molecule, CC1CCOC(c2cccc(Nc3ncc(Cl)c(NC4CC4)n3)c2)O1 (centres unmarked) , is 3.25

log p [c] recorded for this molecule, CCC1COC(c2cccc(Nc3ncc(Cl)c(NC4CC4)n3)c2)O1 (centres unmarked) , is 3.48

log p [c] recorded for this molecule, C=CCOCC1COC(c2cccc(Nc3ncc(C(F)(F)F)c(NC4CCC4)n3)c2)O1 (centres unmarked) , is 4.35

###

Provide the reported log p of each item.
experiment: logP by HPLC on reversed-phase columns (EEC Directive 79/831 Annex V.A8); assay type: physicochemical; conditions: pH 2.7
Please state the value as a number alone, without comment.

log p recorded for this molecule, "Fc1ccc(Nc2ncc(Br)c(NC3CCC3)n2)cc1C1OCCO1" , is 2.22

log p recorded for this molecule, CC1CC1Nc1nc(Nc2cccc(C3OCCCO3)c2)ncc1Br (stereo not shown) , is 2.18

log p recorded for this molecule, OCC1CSC(c2cccc(Nc3ncc(Cl)c(NC4CCC4)n3)c2)S1 (stereo not shown) , is 1.93

log p recorded for this molecule, CC1CSC(c2cccc(Nc3ncc(Cl)c(NC4CCC4)n3)c2)S1 (stereo not shown) , is 3.23

log p recorded for this molecule, CC1CCC2OC(c3cccc(Nc4ncc(Cl)c(NC5CC5)n4)c3)OC12 (stereo not shown) , is 2.79

log p recorded for this molecule, Clc1cnc(Nc2cccc(C3OCC(CBr)O3)c2)nc1NC1CC1 (stereo not shown) , is 2.39

log p recorded for this molecule, "Fc1ccc(Nc2ncc(C(F)(F)F)c(NC3CC3)n2)cc1C1OCCCO1" , is 2.27

log p recorded for this molecule, CC1CSC(c2cccc(Nc3ncc(Br)c(NC4CC4)n3)c2)S1 (stereo not shown) , is 3.1

log p recorded for this molecule, "CC(C)Nc1nc(Nc2cccc(C3OCCO3)c2)ncc1Cl" , is 1.7

log p recorded for this molecule, CC1CSC(c2cccc(Nc3ncc(Br)c(NC4CCC4)n3)c2)S1 (stereo not shown) , is 3.49

log p recorded for this molecule, OCC1CSC(c2cccc(Nc3ncc(Br)c(NC4CCC4)n3)c2)S1 (stereo not shown) , is 2.11

log p recorded for this molecule, OCC1CSC(c2cccc(Nc3ncc(C(F)(F)F)c(NC4CC4)n3)c2)S1 (stereo not shown) , is 2.65

log p recorded for this molecule, "Fc1ccc(Nc2ncc(C(F)(F)F)c(NC3CC3)n2)cc1C1OCCO1" , is 2.76

log p recorded for this molecule, "COc1ccc(Nc2ncc(Br)c(NC3CC3)n2)cc1C1OCCO1" , is 1.5

log p recorded for this molecule, "C#CCNc1nc(Nc2cccc(C3OCCO3)c2)ncc1Cl" , is 1.58

log p recorded for this molecule, "COc1ccc(Nc2ncc(Br)c(NC3CCC3)n2)cc1C1OCCO1" , is 1.79

log p recorded for this molecule, "Clc1cnc(Nc2ccc(C3OCCCO3)cc2)nc1NC1CC1" , is 1.72

log p recorded for this molecule, "CC(C)Nc1nc(Nc2cccc(C3OCCCO3)c2)ncc1Cl" , is 1.73
